System: conscious Sprague-Dawley rats
Experiment: Metabolic cage renal excretory studies, oral gavage (Example 3)
Format: in vivo, rat
Conditions: oral gavage; cumulative 5-hour urine; same doses; mean±SEM
Catalogue of compounds with associated Potassium concentration [K+] in cumulative urine
reported endpoint: Potassium concentration [K+] in cumulative urine (μeq ml^−1)

{"compound": "CN(C(=O)/C=C/c1ccoc1)[C@@H]1CC[C@@]2(O)[C@H]3Cc4ccc(O)c5c4[C@@]2(CCN3CC2CC2)[C@H]1O5", "endpoint result": 14.55}
{"compound": "NS(=O)(=O)c1cc(C(=O)O)c(NCc2ccco2)cc1Cl [furosemide]", "endpoint result": 23.94}
{"compound": "N=C(N)NC(=O)c1nc(Cl)c(N)nc1N [amiloride]", "endpoint result": 4.02}
{"compound": "NS(=O)(=O)c1cc2c(cc1Cl)NCNS2(=O)=O [HCTZ, hydrochlorothiazide]", "endpoint result": 26.50}
